Test system: PC15
procedure.summary: qHTS profiling for inhibitors of Plasmodium falciparum proliferation (AID 504749); also: nearly all actives have a fitted effect of over 60% in size; also: potency is read from the fitted curve at half-maximal effect
measurement.setup: P. falciparum in erythrocytes, SYBR Green DNA, 72 h; series mostly up to 28.7 µM
Inconclusive results are not listed. Active and inactive are the calls of the source. Calls follow the shape of the dose curve; as a rule, active = well fitted inhibition curve with a large enough effect; inconclusive = small, poorly fitted or top-dose-only effect; inactive = flat fitted curve, though single readings scatter.
observed.property: Potency

# annotated cases, reported Potency shown
Assay PC15, sample C/C=C1\C2C=C(C)CC1(N)c1ccc(=O)[nH]c1C2 (stereo not given) , Potency read: inactive

Per the reported PC15 data, C[C@@H](C(=O)O)c1ccc(-c2ccccc2)c(F)c1 has Potency of inactive

// compound CC(C)(O)c1ccccc1CC[C@H](SCC1(CC(=O)O)CC1)c1cccc(/C=C/c2ccc3ccc(Cl)cc3n2)c1 , assay PC15, Potency value: inactive

Kindly note: PC15, COC(=O)[C@@H]1[C@@H]2C[C@H]3c4[nH]c5ccccc5c4CCN3C[C@@H]2CC[C@@H]1O , Potency value reported: inactive

Continuing:
Record O=C(CC1NCCC[C@H]1O)Cn1cnc2cc(Br)c(Cl)cc2c1=O (stereo not given in full) / PC15, Potency recorded as 891 nM (active)

----------
procedure.summary: qHTS for Inhibitors of Plasmodium falciparum (DD2) proliferation (AID 504314);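 also: parasite DNA measured by SYBR Green fluorescence after red cell lysis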
measurement.setup: P. falciparum Dd2 in erythrocytes, SYBR Green growth, 72 h; series mostly up to 6.11 µM
Results filed as inconclusive are left out. Activity calls are given as the source filed them. The call rests on the fitted dose curve; in most records, active means well fitted inhibition curve with a large enough effect; inconclusive means small, poorly fitted or top-dose-only effect; inactive means flat fitted curve, though single readings scatter.
observed.property: activity, negative = inhibition

Form field activity, negative = inhibition, entry CC(=O)OC[C@H]1O[C@H](CC=NOC[C@@H](C)[C@H](OCc2ccccc2)C(C)C)C=C[C@@H]1OC(C)=O : inactive

response.value for COCOc1c2c(c(OCOC)c3c(OCOC)cccc13)C(=NNS(=O)(=O)c1ccc(C)cc1)C1=C2CCCC1 (field: activity, negative = inhibition) = inactive

activity, negative = inhibition reading for CC=COC(=O)N[C@@H](c1ccccc1)[C@]1(C(=O)OCC)CCCC1=O : inactive

----------
system.name: Glucocorticoid receptor (Homo sapiens) (UniProt P04150)
Sequence (P04150 whole entry, looked up): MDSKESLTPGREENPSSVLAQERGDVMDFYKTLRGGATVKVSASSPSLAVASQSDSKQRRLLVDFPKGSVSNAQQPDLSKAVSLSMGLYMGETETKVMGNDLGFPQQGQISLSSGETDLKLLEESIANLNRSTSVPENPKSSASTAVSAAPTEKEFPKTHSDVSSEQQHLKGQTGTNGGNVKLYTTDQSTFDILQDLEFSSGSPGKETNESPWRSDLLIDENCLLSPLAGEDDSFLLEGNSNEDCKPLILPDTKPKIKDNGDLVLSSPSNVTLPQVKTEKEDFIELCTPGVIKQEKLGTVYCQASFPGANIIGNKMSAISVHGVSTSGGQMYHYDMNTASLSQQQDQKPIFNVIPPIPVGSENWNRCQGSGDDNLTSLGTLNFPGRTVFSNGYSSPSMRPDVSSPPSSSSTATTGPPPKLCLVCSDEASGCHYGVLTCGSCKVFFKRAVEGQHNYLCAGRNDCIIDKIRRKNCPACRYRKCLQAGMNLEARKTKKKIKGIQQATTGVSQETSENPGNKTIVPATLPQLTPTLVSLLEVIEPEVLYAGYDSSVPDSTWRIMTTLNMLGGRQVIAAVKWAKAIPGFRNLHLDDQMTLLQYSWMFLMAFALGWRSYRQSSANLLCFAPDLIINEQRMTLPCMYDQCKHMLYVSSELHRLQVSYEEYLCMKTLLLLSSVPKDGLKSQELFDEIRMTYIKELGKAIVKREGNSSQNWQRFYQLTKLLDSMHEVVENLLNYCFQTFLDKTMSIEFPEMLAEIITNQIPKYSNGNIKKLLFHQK
procedure.summary: GR-GFP Redistribution (AID 450); also: potency is read from the fitted curve at half-maximal effect
measurement.setup: U2OS GR-GFP nuclear translocation, laser cytometry, 2 h
Calls of active or inactive are those of the source.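 How the source made its calls: active means compounds whose dose series gives a full or clear partial fitted curve of increased nuclear translocation; inconclusive means weak partial curve or effect only at the top dose; inactive means no dose-dependent translocation response.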
observed.property: Potency

Potency in this record for CCCCCN=c1ccn(Cc2ccccc2)c2ccccc12 : > 46 µM (inactive)

The compound listed as CC(C)(C)Cn1nc(-c2ccc(Cl)cc2)c2c(N)ncnc21 shows Potency equal to > 46 µM (inactive)

get_value(item= COc1cc(COc2cc(N)c(Cl)cc2C(=O)CCC2CCN(CCNS(C)(=O)=O)CC2)cc(OC)c1 , readout=Potency) returns > 46 µM (inactive)

Documented Potency of N[C@H](CCC(=O)NCC(=O)O)C(=O)O : > 46 µM (inactive)

Recorded result, NC(N)=Nc1ccc(Cl)cc1 , Potency: > 46 µM (inactive)

So for N[C@@](C(=O)O)(c1ccc(P(=O)(O)O)cc1)C1CC1 , the logged Potency turned out to be > 46 µM (inactive)

----------
procedure.summary: qHTS for Inhibitors of Plasmodium falciparum (GB4) proliferation (AID 504315); also: nearly all actives have a fitted effect of over 50% in size
measurement.setup: P. falciparum GB4 in erythrocytes, SYBR Green DNA, 72 h; series mostly up to 6.7 µM
Results filed as inconclusive are left out. Activity calls are given as the source filed them. The call rests on the fitted dose curve; in most records, active means well fitted inhibition curve with a large enough effect; inconclusive means small, poorly fitted or top-dose-only effect, or effect the other way; inactive means flat fitted curve, though single readings scatter.
Thanks in advance; please answer with one of these: yes (active), no (inactive)

Query string: What classification did COc1ccc(-c2nc3c(c4c2C[C@H](c2ccccc2)OC4)CN(C(=O)N[C@@H](C)c2ccccc2)CC3)c(C)c1 end up with in this test?
Result string: no

Query string: Dear all, I need the recorded test outcome for COc1ccc(O[C@H]2C=C[C@@H](c3ccccc3)O[C@H]2CON=C2c3cc(OC)ccc3O[C@H](c3cccc(OC)c3)[C@H]2O)cc1 , thank you.
Result string: no

Query string: Tell me the recorded outcome of this test for CCN1C(=O)[C@@H]2[C@H]3[C@H](O)[C@H](O)CC(=NOC[C@@H](C)[C@H](OCc4ccccc4)C(C)C)[C@@H]3CC[C@H]2C1=O .
Result string: no

Query string: Per the records of this test, what outcome belongs to C=CCC(Nc1ccc(OC)cc1)(C(=O)OCC)c1ccccc1 (configuration not stated) ?
Result string: no

Query string: Test call for this molecule, please: Cc1c(O)ccc2c1OCO2
Result string: no

Query string: Please share the test call associated with CCN1C(=NCc2cc(OC)c(OC)c(OC)c2)N[C@@H](c2ccccc2)[C@H](C(=O)OC)[C@H]1C .
Result string: no

Query string: How did this test come out for COc1cc(C(NC(=O)C(F)(F)F)c2cc3ccccc3o2)cc(OC)c1OC (configuration not stated) ?
Result string: no

Query string: Given COC(=O)N[C@@H](c1ccc2ccccc2c1)C(C(C)=O)C(=O)OC (some centres not stated) , state the outcome it received in this test.
Result string: no

Query string: What outcome does the record of this test show for C=CCN1C(=O)[C@@]2(CC(C)=CC[C@@H](C)O2)c2c(Br)cccc21 ?
Result string: no

Query string: Outcome? COc1ccc2c(c1)CO[C@H]([C@H](O)COC(C)=O)[C@H]2C=Cc1ccccc1
Result string: no

Query string: What is the recorded call for this molecule in the test? CC(=O)C1=C(C)N(CCC=Cc2ccccc2)C(=O)NC1c1ccccc1 (configuration not stated)
Result string: no

Query string: Can you look up the reported call for COc1cc2c(c(OC)c1OC)[C@@]1(c3ccccc3)CCCC[C@H]1[C@@H]2NC(=O)C(F)(F)F for me?
Result string: no

Query string: Tell me the recorded outcome of this test for COC(=O)C1=C(C(=O)OC)[C@@H]2N(Cc3ccccc3)c3ccccc3[C@@]23C[C@@H](C(=O)OC)N(C(=O)Nc2ccccc2F)C3=N1 .
Result string: no

Query string: What classification did CC(C)(C)c1nc(-c2ccccc2)oc1Nc1ccc2ccccc2c1 end up with in this test?
Result string: yes

Query string: What was the test verdict on COC(=O)C1=C(C)N(CCC(C)O)C(=O)N(C(C)=O)C1c1ccccc1 (configuration not stated) ?
Result string: no

Query string: Would you mind telling me which call this test gave COC(=O)C1=C(C(=O)OC)[C@@H]2N(C)c3ccccc3[C@@]23CCC(=O)N(Cc2ccc4c(c2)OCO4)C3=N1 ?
Result string: no

Query string: So what was the verdict on COC(=O)[C@H]1[C@@H](c2ccccc2)NC(=O)N(Cc2ccccc2)[C@@H]1C in this test?
Result string: no

Query string: So what was the verdict on C=CCC1(c2ccccc2)Oc2ccccc2-c2nc3cc(Cl)c(Cl)cc3nc21 (configuration not stated) in this test?
Result string: no

Query string: Outcome? COC1=C[C@H](C(=O)NCc2ccc(Br)cc2)C(C)C(c2ccccc2)CC1=O (some centres not stated)
Result string: no

Query string: Per the records of this test, what outcome belongs to COC(=O)C1=C[C@@]2(c3ccc(F)cc3[C@@H](OC)[C@@H]2C)[C@@H]2C=C[C@H]1C2 ?
Result string: no

Query string: Hey, what did the test say about CCOC(=O)NN=C1C[C@@H](O)[C@@H](O)[C@@H]2[C@H]3C(=O)N(Cc4ccc5c(c4)OCO5)C(=O)[C@@H]3CC[C@@H]12 ?
Result string: no

Query string: Entry C=CCN1C(=O)[C@]2(OCCC=C[C@H]2C)c2c(Br)cccc21 : call = ?
Result string: no

Query string: Record request — test call for COC(=O)[C@H]1C[C@@]2(CC=C(C)C)C(=O)[C@@](CC=C(C)C)(C(=O)C(C(=O)c3ccccc3)=C2OC)C1(C)C
Result string: no

Query string: Please share the test call associated with COCC1=Cc2cc3c(cc2C(C(C(=O)OC)C(=O)OC)N1C(=O)OC)OCO3 (configuration not stated) .
Result string: no

Query string: // outcome(item) with item = COC(=O)N[C@@H](c1ccco1)[C@]1(C(=O)OC)CCCC1=O
Result string: no

Query string: Give the logged outcome of this assay for the following molecule: CCN1C(=O)NC(c2ccc(Br)cc2)C(C(C)=O)=C1C (configuration not stated)
Result string: no

Query string: Which outcome did this test record for the molecule C=CCNC(=O)[C@H]1C=C(OC)C(=O)C[C@H](c2ccccc2)[C@H]1C ?
Result string: no

Query string: Would you mind telling me which call this test gave C=CC(=O)N1C(=O)c2ccccc2S1(=O)=O ?
Result string: no

Query string: What is the recorded call for this molecule in the test? COC(=O)C12C[C@H](C)C3C(C)C(c4ccccc4C31)N2C(=O)C(F)(F)F (some centres not stated)
Result string: no

Query string: Which result was noted for this molecule in the test: CCN1C(=O)N(S(=O)(=O)C(F)(F)F)C(c2ccccc2)C(C(=O)OC)=C1C (configuration not stated)
Result string: no

Query string: Each molecule tested received a call. Report the one for CC(=O)C1=CN(CCC=Cc2ccccc2)C(=O)NC1c1ccccc1 (configuration not stated) .
Result string: no

Query string: Each molecule tested received a call. Report the one for CCN1C(=NCCCOC(C)C)N[C@@H](CCc2ccccc2)[C@H](C(=O)NCCCOC(C)C)[C@H]1C .
Result string: no

Query string: What call does the record list for CC1(OC(=O)c2cnc3ccccc3n2)C(=O)C=C2C=C(C3CC3)OC=C2C1=O (configuration not stated) ?
Result string: no

Query string: Which result was noted for this molecule in the test: C#CCN1C(=O)CC[C@@]23C1=NC(C(=O)OC)=C(C(=O)OC)[C@@H]2N(Cc1ccccc1)c1ccccc13
Result string: no

Query string: In this assay, the call recorded for COC(=O)CC=C[C@@H](C)[C@H](OC)c1cc(OC)ccc1Br was what?
Result string: no

Query string: Give the logged outcome of this assay for the following molecule: CC(=O)[C@@H]1[C@@H](C)N(Cc2ccccc2)C(=O)N[C@H]1c1ccccc1
Result string: no

Query string: Hi, do you know how CC(CCC(=O)OC[C@H]1O[C@H](C#Cc2ccccc2)C=C[C@H]1Oc1ccc(C)cc1)=NO[C@@H](C)CN1CCCCc2nc(C)c(C)cc21 came out in this test?
Result string: no

Just for reference, PubChem BioAssay (NCATS) is where these values come from.
